Attribution: patent US11111247B2

tgt: ALK2 (aa 147-end) (Homo sapiens (Human), UniProt Q04771)
Sequence (Q04771 147-509): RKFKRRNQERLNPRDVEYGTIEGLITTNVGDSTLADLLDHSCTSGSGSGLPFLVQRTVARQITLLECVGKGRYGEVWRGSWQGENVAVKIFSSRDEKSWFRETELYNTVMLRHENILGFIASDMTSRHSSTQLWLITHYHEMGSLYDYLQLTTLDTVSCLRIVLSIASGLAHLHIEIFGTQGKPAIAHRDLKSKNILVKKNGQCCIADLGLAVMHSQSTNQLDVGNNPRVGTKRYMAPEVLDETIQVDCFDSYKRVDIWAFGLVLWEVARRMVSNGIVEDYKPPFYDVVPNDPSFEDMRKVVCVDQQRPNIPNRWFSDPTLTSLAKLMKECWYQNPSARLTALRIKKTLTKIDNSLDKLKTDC
measurement.protocol: ALK2 HTRF Assay
Format: biochemical
condition: ALK2 3 μM IC50, 3 uM ATP
pIC50: −log10 of the molar value.
# pIC50 values compiled below
observed.property: pIC50

INSERT INTO results (molecule, experimental_result) VALUES
  ('CN1CCN(c2ncc3[nH]nc(-c4cnn(C)c4)c3n2)CC1=O [Example 36]', '5.70 to 6.30'),
  ('Cn1cc(-c2n[nH]c3cnc(N4C5CCC4c4cn[nH]c4C5)nc23)cn1 (stereo not shown) [Example 45]', '5.70 to 6.30'),
  ('CC(C)C(=O)N1CCC(n2cc(-c3n[nH]c4cnc(N5C6CCC5C(=O)N(C)C6)nc34)cn2)CC1 (stereo not shown) [Example 57]', '5.70 to 6.30'),
  ('CN1CC2CCC(C1=O)N2c1ncc2[nH]nc(-c3cnn(-c4ccc5nccn5c4)c3)c2n1 (stereo not shown) [Example 75]', '5.70 to 6.30'),
  ('Cn1cc(-c2n[nH]c3cnc(N4CCc5cn[nH]c5C4)nc23)cn1 [Example 44]', '5.70 to 6.30'),
  ('CN1CC2CCC(C1=O)N2c1ncc2[nH]nc(-c3cnn(-c4ccncc4)c3)c2n1 (stereo not shown) [Example 68]', '5.70 to 6.30'),
  ('Cn1cc(-c2n[nH]c3cnc(N4CCn5cnc(C(F)(F)F)c5C4)nc23)cn1 [Example 41]', '5.70 to 6.30');
